Taken from the supplement of paper PMC9112550.

Tested on: Escherichia coli TOP10;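 further: peptides expressed intracellularly from a pBAD plasmid library in pooled LB shake-flask culture, induced with 0.3% L-arabinose, DNA abundance read by NGS, three biological replicates, DESeq2 with apeglm shrinkage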
experimental-details: shrunken log2 fold change of peptide-encoding DNA abundance (4.5 h post-induction vs induction); higher = less antimicrobial activity (less host growth inhibition)
measurement-parameters: time post-induction: 4.5 h; library: site-saturation at positions 5, 18, 19, 20
property-label: shrunken log2 fold change
Keep the answer to the number alone.

chain | shrunken log2 fold change
RRIRERPPRLPRPRPRPSVYPRP | -0.493
RRIRKRPPRLPRPRPRPLENPRP | 0.228
RRIRMRPPRLPRPRPRPIVVPRP | 0.0203
RRIRHRPPRLPRPRPRPNKLPRP | -1.05
RRIRFRPPRLPRPRPRPGERPRP | 0.266

## Task Fill in: shrunken log2 fold change of RRIRIRPPRLPRPRPRPSQLPRP is ___
## Result -0.385

## Task Fill in: shrunken log2 fold change of RRIRGRPPRLPRPRPRPYAQPRP is ___
## Result 0.104

## Task Fill in: shrunken log2 fold change of RRIRARPPRLPRPRPRPSIGPRP is ___
## Result 0.111
